Entries annotated with measured pIC50
SYSTEM UNDER TEST: Aminopeptidase N (Sus scrofa, UniProt P15145)
Sequence (P15145 whole entry): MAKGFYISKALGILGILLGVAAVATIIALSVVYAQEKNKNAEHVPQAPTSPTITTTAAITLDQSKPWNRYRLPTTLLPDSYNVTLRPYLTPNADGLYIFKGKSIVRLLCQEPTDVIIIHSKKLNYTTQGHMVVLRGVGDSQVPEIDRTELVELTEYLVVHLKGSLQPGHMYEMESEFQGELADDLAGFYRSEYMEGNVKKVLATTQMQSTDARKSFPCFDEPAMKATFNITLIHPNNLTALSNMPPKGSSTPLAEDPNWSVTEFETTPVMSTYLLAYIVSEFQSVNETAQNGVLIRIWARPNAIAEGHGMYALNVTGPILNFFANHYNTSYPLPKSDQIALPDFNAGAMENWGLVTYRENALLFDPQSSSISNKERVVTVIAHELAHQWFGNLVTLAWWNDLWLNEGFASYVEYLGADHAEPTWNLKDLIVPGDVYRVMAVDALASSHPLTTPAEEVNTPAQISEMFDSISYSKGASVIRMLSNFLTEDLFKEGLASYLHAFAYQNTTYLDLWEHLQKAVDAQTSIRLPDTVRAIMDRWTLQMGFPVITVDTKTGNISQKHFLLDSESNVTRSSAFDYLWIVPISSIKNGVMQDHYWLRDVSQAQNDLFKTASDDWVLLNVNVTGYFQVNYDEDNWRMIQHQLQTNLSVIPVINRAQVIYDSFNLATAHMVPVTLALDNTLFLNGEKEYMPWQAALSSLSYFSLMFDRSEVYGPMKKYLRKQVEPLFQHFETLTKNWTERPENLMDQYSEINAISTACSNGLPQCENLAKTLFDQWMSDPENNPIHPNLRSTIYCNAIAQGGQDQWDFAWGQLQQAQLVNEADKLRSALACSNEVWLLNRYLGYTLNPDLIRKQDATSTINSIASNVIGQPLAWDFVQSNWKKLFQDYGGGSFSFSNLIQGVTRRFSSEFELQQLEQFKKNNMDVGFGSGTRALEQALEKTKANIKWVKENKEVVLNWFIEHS
pIC50: −log10 of the molar value.

>>> val("N[C@H]1Cc2ccccc2C[C@@H](O)C1=O (racemic)")
"< 4.00"

Next compound, please.
### Prompt Which pIC50 reading was recorded for the compound N[C@@H]1[C@H](O)Cc2ccccc2C[C@@H]1O ?
### Response < 3.00

----------
SYSTEM UNDER TEST: UniProt:Q01693
Sequence (Q01693 whole entry): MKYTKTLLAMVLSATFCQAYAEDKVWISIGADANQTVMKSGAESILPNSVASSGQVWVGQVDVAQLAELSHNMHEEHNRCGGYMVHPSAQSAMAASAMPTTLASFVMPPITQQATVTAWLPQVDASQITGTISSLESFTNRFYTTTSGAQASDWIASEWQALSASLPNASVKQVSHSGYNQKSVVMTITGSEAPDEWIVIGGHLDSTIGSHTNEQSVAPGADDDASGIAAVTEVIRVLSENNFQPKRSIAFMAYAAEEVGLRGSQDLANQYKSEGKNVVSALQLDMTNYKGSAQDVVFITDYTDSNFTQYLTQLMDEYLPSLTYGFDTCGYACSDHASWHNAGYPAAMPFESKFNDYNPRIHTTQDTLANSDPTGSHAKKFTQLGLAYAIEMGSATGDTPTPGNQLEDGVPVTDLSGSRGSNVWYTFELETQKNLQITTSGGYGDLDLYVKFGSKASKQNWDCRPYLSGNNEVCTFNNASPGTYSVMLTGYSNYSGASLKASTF
ENDPOINT NAME: pKi
Recall that pKi is obtained by taking minus log10 of the concentration measured in molar.

### Prompt Which pKi reading was recorded for the compound N[C@H]1Cc2ccccc2C[C@H](O)C1=O (racemic) ?
### Response 4.62

----------
SYSTEM UNDER TEST: Aminopeptidase N (Sus scrofa)
Sequence (P15145 whole entry): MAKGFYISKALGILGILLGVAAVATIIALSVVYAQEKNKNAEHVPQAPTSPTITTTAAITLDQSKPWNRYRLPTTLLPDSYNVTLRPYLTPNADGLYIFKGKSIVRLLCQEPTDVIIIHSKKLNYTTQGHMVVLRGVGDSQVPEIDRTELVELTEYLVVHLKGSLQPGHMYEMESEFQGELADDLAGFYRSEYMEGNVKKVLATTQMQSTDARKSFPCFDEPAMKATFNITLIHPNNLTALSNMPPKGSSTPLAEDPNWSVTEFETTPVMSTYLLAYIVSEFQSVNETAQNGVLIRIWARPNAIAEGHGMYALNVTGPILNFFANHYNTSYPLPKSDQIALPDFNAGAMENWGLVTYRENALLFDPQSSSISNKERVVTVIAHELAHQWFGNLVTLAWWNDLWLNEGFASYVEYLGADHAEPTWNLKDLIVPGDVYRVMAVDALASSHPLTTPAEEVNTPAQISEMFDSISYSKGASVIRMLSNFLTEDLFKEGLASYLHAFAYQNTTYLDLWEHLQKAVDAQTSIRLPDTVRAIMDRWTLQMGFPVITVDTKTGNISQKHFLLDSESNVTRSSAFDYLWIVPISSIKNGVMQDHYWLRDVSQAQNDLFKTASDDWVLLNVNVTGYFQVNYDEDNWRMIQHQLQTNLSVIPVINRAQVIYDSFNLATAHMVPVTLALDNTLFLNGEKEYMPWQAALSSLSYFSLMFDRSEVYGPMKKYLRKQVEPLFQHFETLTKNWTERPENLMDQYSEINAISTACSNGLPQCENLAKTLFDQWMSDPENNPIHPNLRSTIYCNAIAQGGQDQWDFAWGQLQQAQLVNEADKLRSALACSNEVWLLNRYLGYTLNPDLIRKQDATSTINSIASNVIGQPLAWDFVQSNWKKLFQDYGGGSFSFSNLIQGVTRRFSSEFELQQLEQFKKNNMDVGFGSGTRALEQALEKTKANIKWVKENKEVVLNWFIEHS
ENDPOINT NAME: pKi
Recall that pKi is obtained by taking minus log10 of the concentration measured in molar.

### Prompt Which pKi reading was recorded for the compound N[C@H]1Cc2ccccc2C[C@H](O)C1=O (racemic) ?
### Response 4.38
